Biological target: T1, human ferroportin (SLC40A1) fused in frame with GFP, stably expressed in HEK293 cells (human, UniProt Q9NP59 1-571)
T1 sequence (looked up): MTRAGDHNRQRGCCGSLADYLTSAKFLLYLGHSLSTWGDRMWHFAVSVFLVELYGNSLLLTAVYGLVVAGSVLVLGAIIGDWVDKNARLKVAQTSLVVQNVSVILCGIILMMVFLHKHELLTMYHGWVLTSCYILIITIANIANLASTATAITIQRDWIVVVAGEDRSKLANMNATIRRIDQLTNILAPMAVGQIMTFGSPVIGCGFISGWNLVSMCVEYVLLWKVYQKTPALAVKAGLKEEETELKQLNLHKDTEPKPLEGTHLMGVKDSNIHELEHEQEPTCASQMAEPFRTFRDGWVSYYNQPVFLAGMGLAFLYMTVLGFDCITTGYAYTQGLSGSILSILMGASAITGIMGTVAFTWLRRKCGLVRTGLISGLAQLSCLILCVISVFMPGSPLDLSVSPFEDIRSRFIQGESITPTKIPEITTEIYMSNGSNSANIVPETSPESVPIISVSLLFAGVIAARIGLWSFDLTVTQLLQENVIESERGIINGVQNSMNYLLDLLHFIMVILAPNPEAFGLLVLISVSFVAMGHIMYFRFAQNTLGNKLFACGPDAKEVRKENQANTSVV
Test: cell-based or functional assay
value-type: Potency: percent at the stated concentration, ferroportin-GFP internalization/degradation

binder	reported-result
H-DTHFPCIVF-NH2 [Hy-DTHFPCIVF-NH2]	75 % at 1 µM
H-DTHFPCLF-NH2 [Hy-DTHFPCLF-NH2]	39 % at 1 uM
H-LTHFPCIIF-NH2 [Hy-LTHFPCIIF-NH2]	64 % at 1 µM
H-DTHFPCIIR-NH2 [Hy-DTHFPCIIR-NH2]	62 % at 1 µM
H-DTHFPCIF-NH2 [Hy-DTHFPCIF-NH2]	52 % at 1 µM
H-DTHKPCIIF-NH2 [Hy-DTHKPCIIF-NH2]	45 % at 10 uM
H-DTHFPCIIFAA-NH2 [Hy-DTHFPCIIFAA-NH2]	59 % at 1 uM
H-DTHFPCIEY-NH2 [Hy-DTHFPCIEY-NH2]	8 % at 1 uM
H-DTHFPCIIT-NH2 [Hy-DTHFPCIIT-NH2]	23 % at 1 uM
H-DTHFPCILY-NH2 [Hy-DTHFPCILY-NH2]	85 % at 1 uM
